# testSystem: T1, recombinant LAIR1 (human, UniProt Q6GTX8 22-165, limits assumed)
# T1 construct: also called LAIR1 (Octet analyte)
# T1 chain: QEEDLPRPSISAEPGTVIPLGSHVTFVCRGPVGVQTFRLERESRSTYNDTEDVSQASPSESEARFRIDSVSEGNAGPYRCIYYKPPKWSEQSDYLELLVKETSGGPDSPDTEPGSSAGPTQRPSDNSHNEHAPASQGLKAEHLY
# assaySummary: BLI (Octet), mAb on protein A sensor, recombinant LAIR1 0.1-200 nM, 1:1 fit
# Method: To perform the assay, antibody (30 μg/mL) was loaded to the proteins A sensor for 4 min, followed by a short buffering to establish baseline in kinetics buffer. The loaded sensors were then exposed to a series of recombinant LAIR1 concentrations (0.1-200 nM) for kinetic binding detection. […] Background wavelength shifts were measured from reference sensors that were loaded only with antibody. […] The KD was calculated using the ratio […] using ForteBio's data analysis software 7.0.
readoutLabel: koff (s⁻¹)
// return numeric value only (unit: s⁻¹, not printed)

binder	koff (s⁻¹)
LA-258-3 (antibody, V domains shown, Rabbit monoclonal IgG) VH: QSVKESGGDLVKPEGSLTLTCKASGFSFSNSYYMCWVRQAPGKGLEWIACIYTGSTSGTYYASWVNGRFTISKTPSTTVTLQMTSLTVADTATYFCSRKLTNFNGAYLDLWGPGTLVTISS VL: ELVLTQTPASVEAAVGGTVTINCQASQSISNLLAWYQQKPGQPPKVLIYKASTLASGVPSRFKGSGSGTDFTLTISDLECADAATYYCQANNGGSDNNFGGGTEVVVKA	0.00222
LA-258-2 (antibody, V domains shown, Rabbit monoclonal IgG) VH: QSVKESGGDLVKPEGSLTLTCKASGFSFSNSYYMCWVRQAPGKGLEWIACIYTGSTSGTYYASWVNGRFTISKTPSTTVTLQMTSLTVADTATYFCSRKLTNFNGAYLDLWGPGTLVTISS VL: ELVMTQTPSSVEAAVGGTVTIKCQASQSIYSYLAWYQQKPGQPPKVLIYKASTLASGVPSRFKGSGSGTDFTLTISDLECADAATYYCQANNGGSDNNFGGGTEVEIK	8.02e-06

Consider the binder shown here: LA-121 (antibody, V domains shown, Rabbit monoclonal IgG) VH: EQSVEESGGRLVTPGTPLTLTCTASGFSLYKYNIQWVRQAPGKGLEYIGASTYAGYTYYASWAIGRVTISRTSTTVDLKMTSPTTEDTATYFCARHIDGDYSGYALWGPGTLVTISS VL: ELDLTQTPASVSAAVGGTVTIKCQASQSIDTWFGWYQQKPGQSPKLLIYGASKLASGVPPRFKGSGSGTEFTLTISDLECADAATYYCQNTYYGVRYLGGAFGGGTEVEIK What is its recorded koff? 2.41e-05
